Prostaglandin G/H synthase 1 (Homo sapiens, UniProt P23219) IC50 data
Sequence (P23219 whole entry): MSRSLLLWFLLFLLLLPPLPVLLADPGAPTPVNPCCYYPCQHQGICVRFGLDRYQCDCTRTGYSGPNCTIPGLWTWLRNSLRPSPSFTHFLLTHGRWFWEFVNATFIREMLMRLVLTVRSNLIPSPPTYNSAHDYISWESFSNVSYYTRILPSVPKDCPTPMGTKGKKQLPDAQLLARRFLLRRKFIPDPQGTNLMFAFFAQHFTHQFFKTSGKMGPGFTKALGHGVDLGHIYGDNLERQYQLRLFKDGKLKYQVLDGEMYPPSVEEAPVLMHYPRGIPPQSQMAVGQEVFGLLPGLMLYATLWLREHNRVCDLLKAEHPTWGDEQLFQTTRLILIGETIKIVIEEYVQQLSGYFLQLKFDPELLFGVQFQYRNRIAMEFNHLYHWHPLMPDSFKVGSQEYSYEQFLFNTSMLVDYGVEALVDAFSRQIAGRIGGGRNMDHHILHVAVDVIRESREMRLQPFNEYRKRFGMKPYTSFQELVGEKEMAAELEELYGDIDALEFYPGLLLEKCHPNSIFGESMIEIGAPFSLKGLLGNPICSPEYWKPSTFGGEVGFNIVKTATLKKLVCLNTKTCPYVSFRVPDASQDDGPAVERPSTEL
TEST READOUT: IC50 (µM)

COMPOUND	MEASURED ON	TEST READOUT	VALUE UNITS	PREFIX OPERATOR	ENDPOINT RESULT
CC(C)=CCc1cc(/C=C/c2cc(O)cc(O)c2)ccc1O	Prostaglandin G/H synthase 1 (Homo sapiens, UniProt P23219)	IC50	µM	=	0.61
O=C1c2c(O)cc(O)cc2O[C@H](c2ccc(O)cc2O)[C@H]1O [DIHYDROMORIN]	Prostaglandin G/H synthase 1 (Homo sapiens, UniProt P23219)	IC50	µM	=	67.1
Oc1cc(O)cc(-c2cc3ccc(O)cc3o2)c1 [MORACIN M]	Prostaglandin G/H synthase 1 (Homo sapiens, UniProt P23219)	IC50	µM	=	0.5
CC(C)=CCc1cc(/C=C/c2cc(O)cc(O)c2)c(O)cc1O	Prostaglandin G/H synthase 1 (Homo sapiens, UniProt P23219)	IC50	µM	=	4.1
C[C@@H]1O[C@@H](O[C@H]2Cc3c(O)cc(O)cc3O[C@@H]2c2ccc(O)cc2)[C@H](O)[C@H](O)[C@H]1O	Prostaglandin G/H synthase 1 (Homo sapiens, UniProt P23219)	IC50	µM	=	8.3
Oc1cc(O)cc(/C=C/c2ccc(O)cc2O)c1 [OXYRESVERATROL]	Prostaglandin G/H synthase 1 (Homo sapiens, UniProt P23219)	IC50	µM	=	1.4
O=c1cc(-c2ccc(O)cc2O)oc2cc(O)cc(O)c12 [NORARTOCARPETIN]	Prostaglandin G/H synthase 1 (Homo sapiens, UniProt P23219)	IC50	µM	=	14
CC1OC(OC2C(=O)c3c(O)cc(O)cc3OC2c2ccc(O)cc2)C(O)C(O)C1O (centres undefined) [ENGELETIN]	Prostaglandin G/H synthase 1 (Homo sapiens, UniProt P23219)	IC50	µM	>	230
CC(C)(O)[C@H](O)Cc1cc(/C=C/c2cc(O)cc(O)c2)ccc1O	Prostaglandin G/H synthase 1 (Homo sapiens, UniProt P23219)	IC50	µM	=	0.48

---

PROTOCOL NOTES: Inhibition of DMBA-induced preneoplastic lesions in mouse mammary gland organ culture at 10 ug/mL
Assay type: functional
The reader will find reported inhibition at 10 µg/mL values listed item by item below.

COMPOUND	inhibition at 10 µg/mL / %
Oc1cc(O)cc(/C=C/c2ccc(O)cc2O)c1 [OXYRESVERATROL]	33.3
Oc1cc(O)cc(-c2cc3ccc(O)cc3o2)c1 [MORACIN M]	33.3
CC(C)=CCc1cc(/C=C/c2cc(O)cc(O)c2)c(O)cc1O	0
O=C1c2c(O)cc(O)cc2O[C@H](c2ccc(O)cc2O)[C@H]1O [DIHYDROMORIN]	81.5
Oc1cc(O)c2c(c1)O[C@H](c1ccc(O)c(O)c1)[C@@H](O)C2 [CIANIDANOL]	50
Oc1ccc([C@H]2Oc3cc(O)cc(O)c3C[C@H]2O)cc1 [EPIAFZELECHIN (2R,3R)(-)]	81.5
O=c1cc(-c2ccc(O)cc2O)oc2cc(O)cc(O)c12 [NORARTOCARPETIN]	85.2
C/C(=C/Cc1c(O)ccc(C(=O)/C=C/c2ccc(O)cc2)c1O)COC(=O)/C=C/c1ccc(O)cc1 [GEMICHALCONE B]	33.3
C[C@@H]1O[C@@H](O[C@H]2Cc3c(O)cc(O)cc3O[C@@H]2c2ccc(O)cc2)[C@H](O)[C@H](O)[C@H]1O	0
O=C1CC(c2ccc(O)cc2O)Oc2cc(O)cc(O)c21 (configuration not stated) [STEPPOGENIN]	66.7
CC(C)=CCc1cc(/C=C/c2cc(O)cc(O)c2)ccc1O	7.3
Oc1ccc(/C=C/c2cc(O)cc(O)c2)cc1 [RESVERATROL]	87.5
